percentage of EdU-negative reference
- Tested on: MCF7;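 also: secreted proteins added to cultured cells, EdU pulse at the end, nuclei found by Hoechst imaging, EdU status from nuclear versus surrounding ring intensity ratio, PBS as neutral control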
- protocol: percentage of EdU-negative (G0-arrested) nuclei per well, 72 h; higher = more G0 arrest
- test_conditions: protein concentration 0.225 µM; reference: sequence is the full UniProt precursor, the tested protein was the secreted form or ectodomain

Reference set (5 entries):
residue_codes	subject_of_test	percentage of EdU-negative
MRLPGVPLARPALLLLLPLLAPLLGTGAPAELRVRVRLPDGQVTEESLQADSDADSISLELRKPDGTLVSFTADFKKDVKVFRALILGELEKGQSQFQALCFVTQLQHNEIIPSEAMAKLRQKNPRAVRQAEEVRGLEHLHMDVAVNFSQGALLSPHLHNVCAEAVDAIYTRQEDVRFWLEQGVDSSVFEALPKASEQAELPRCRQVGDHGKPCVCRYGLSLAWYPCMLKYCHSRDRPTPYKCGIRSCQKSYSFDFYVPQRQLCLWDEDPYPG [Q86UD1]	MCF7	29.8%
MLWLFQSLLFVFCFGPGNVVSQSSLTPLMVNGILGESVTLPLEFPAGEKVNFITWLFNETSLAFIVPHETKSPEIHVTNPKQGKRLNFTQSYSLQLSNLKMEDTGSYRAQISTKTSAKLSSYTLRILRQLRNIQVTNHSQLFQNMTCELHLTCSVEDADDNVSFRWEALGNTLSSQPNLTVSWDPRISSEQDYTCIAENAVSNLSFSVSAQKLCEDVKIQYTDTKMILFMVSGICIVFGFIILLLLVLRKRRDSLSLSTQRTQGPAESARNLEYVSVSPTNNTVYASVTHSNRETEIWTPRENDTITIYSTINHSKESKPTFSRATALDNVV [Q96DU3]	MCF7	25%
MDLSRPRWSLWRRVFLMASLLACGICQASGQIFITQTLGIKGYRTVVALDKVPEDVQEYSWYWGANDSAGNMIISHKPPSAQQPGPMYTGRERVNREGSLLIRPTALNDTGNYTVRVVAGNETQRATGWLEVLELGSNLGISVNASSLVENMDSVAADCLTNVTNITWYVNDVPTSSSDRMTISPDGKTLVILRVSRYDRTIQCMIESFPEIFQRSERISLTVAYGPDYVLLRSNPDDFNGIVTAEIGSQVEMECICYSFLDLKYHWIHNGSLLNFSDAKMNLSSLAWEQMGRYRCTVENPVTQLIMYMDVRIQAPHEDLTCCPQRFLHLRIHGDVPHHADSAGWRLHLWSPDPCSDQPLLNQDKSGSMSVHPRPEDKTRRASR [A8MTB9]	MCF7	27.4%
MCSRGWDSCLALELLLLPLSLLVTSIQGHLVHMTVVSGSNVTLNISESLPENYKQLTWFYTFDQKIVEWDSRKSKYFESKFKGRVRLDPQSGALYISKVQKEDNSTYIMRVLKKTGNEQEWKIKLQVLDPVPKPVIKIEKIEDMDDNCYLKLSCVIPGESVNYTWYGDKRPFPKELQNSVLETTLMPHNYSRCYTCQVSNSVSSKNGTVCLSPPCTLARSFGVEWIASWLVVTVPTILGLLLT	MCF7	27.8%
MVRMVPVLLSLLLLLGPAVPQENQDGRYSLTYIYTGLSKHVEDVPAFQALGSLNDLQFFRYNSKDRKSQPMGLWRQVEGMEDWKQDSQLQKAREDIFMETLKDIVEYYNDSNGSHVLQGRFGCEIENNRSSGAFWKYYYDGKDYIEFNKEIPAWVPFDPAAQITKQKWEAEPVYVQRAKAYLEEECPATLRKYLKYSKNILDRQDPPSVVVTSHQAPGEKKKLKCLAYDFYPGKIDVHWTRAGEVQEPELRGDVLHNGNGTYQSWVVVAVPPQDTAPYSCHVQHSSLAQPLVVPWEAS	MCF7	26.1%

query: Query (sequence): `MDPKGLLSLTFVLFLSLAFGASYGTGGRMMNCPKILRQLGSKVLLPLTYERINKSMNKSIHIVVTMAKSLENSVENKIVSLDPSEAGPPRYLGDRYKFYLENLTLGIRESRKEDEGWYLMTLEKNVSVQRFCLQLRLYEQVSTPEIKVLNKTQENGTCTLILGCTVEKGDHVAYSWSEKAGTHPLNPANSSHLLSLTLGPQHADNIYICTVSNPISNNSQTFSPWPGCRTDPSETKPWAVYAGLLGGVIMILIMVVILQLRRRGKTNHYQTTVEKKSLTIYAQVQKPGPLQKKLDSFPAQDPCTTIYVAATEPVPESVQETNSITVYASVTLPES` ; field requested: percentage of EdU-negative
result: 23.1%

query: Would you kindly repeat that for `MTARAWASWRSSALLLLLVPGYFPLSHPMTVAGPVGGSLSVQCRYEKEHRTLNKFWCRPPQILRCDKIVETKGSAGKRNGRVSIRDSPANLSFTVTLENLTEEDAGTYWCGVDTPWLRDFHDPIVEVEVSVFPAGTTTASSPQSSMGTSGPPTKLPVHTWPSVTRKDSPEPSPHPGSLFSNVRFLLLVLLELPLLLSMLGAVLWVNRPQRSSRSRQNWPKGENQ` ?
result: 23.5%

query: Same question, MAGRLLGKALAAVSLSLALASVTIRSSRCRGIQAFRNSFSSSWFHLNTNVMSGSNGSKENSHNKARTSPYPGSKVERSQVPNEKVGWLVEWQDYKPVEYTAVSVLAGPRWADPQISESNFSPKFNEKDGHVERKSKNGLYEIENGRPRNPAGRTGLVGRGLLGRWGPNHAADPIITRWKRDSSGNKIMHPVSGKHILQFVAIKRKDCGEWAIPGGMVDPGEKISATLKREFGEEALNSLQKTSAEKREIEEKLHKLFSQDHLVIYKGYVDDPRNTDNAWMETEAVNYHDETGEIMDNLMLEAGDDAGKVKWVDINDKLKLYASHSQFIKLVAEKRDAHWSEDSEADCHAL [Q9BW91] this time
result: 26.1%

query: Would you mind doing MLSSVVFWGLIALIGTSRGSYPFSHSMKPHLHPRLYHGCYGDIMTMKTSGATCDANSVMNCGIRGSEMFAEMDLRAIKPYQTLIKEVGQRHCVDPAVIAAIISRESHGGSVLQDGWDHRGLKFGLMQLDKQTYHPVGAWDSKEHLSQATGILTERIKAIQKKFPTWSVAQHLKGGLSAFKSGIEAIATPSDIDNDFVNDIIARAKFYKRQSF [Q86SG7] as well?
result: 25.6%

query: Thanks! And `MEEAILVPCVLGLLLLPILAMLMALCVHCHRLPGSYDSTSSDSLYPRGIQFKRPHTVAPWPPAYPPVTSYPPLSQPDLLPIPRSPQPLGGSHRTPSSRRDSDGANSVASYENEGASGIRGAQAGWGVWGPSWTRLTPVSLPPEPACEDADEDEDDYHNPGYLVVLPDSTPATSTAAPSAPALSTPGIRDSAFSMESIDDYVNVPESGESAEASLDGSREYVNVSQELHPGAAKTEPAALSSQEAEEVEEEGAPDYENLQELN` ?
result: 25.8%
